Entries and their measured protein stability index follow.
B1: NEUROD6 (parent)
chain: YHSPELTTPPGHGTLDNSKSMKPY

- Variants of: B1
- Measurement Protocol: protein stability index of a GFP-peptide fusion (GPS, HEK-293T) (PSI 1-6); higher = more stable;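 also: lentivirally expressed fusions sorted by FACS into six bins by GFP to DsRed ratio, PSI derived from sequencing read proportions per bin multiplied by bin number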
- Measurement Context: c terminus: a fixed tail appended
Note: the reply should be a number with no unit written.

> print(dat)
   variant.code         measurement.name  reported
1           T7R  protein stability index      3.58
2           P9T  protein stability index      2.32
3           Y1S  protein stability index      4.93
4           H2Q  protein stability index      3.15
5           L6I  protein stability index      2.63

The variant listed as `P23D` shows protein stability index equal to 2.28

The variant listed as `T7D` shows protein stability index equal to 3.48

The variant listed as `G11M` shows protein stability index equal to 2.48

The variant listed as `L15Q` shows protein stability index equal to 2.77

The variant listed as `E5T` shows protein stability index equal to 2.28

The variant listed as `P10H` shows protein stability index equal to 2.17
